Items are presented alongside their recorded koff.
Biological target: T1, human Dectin-1 (biosensor tests of Tables 3, 4A and 9; construct not stated) (human, UniProt Q9BXN2 66-247, limits assumed)
T1 construct: also called hDectin-1
T1 sequence (looked up): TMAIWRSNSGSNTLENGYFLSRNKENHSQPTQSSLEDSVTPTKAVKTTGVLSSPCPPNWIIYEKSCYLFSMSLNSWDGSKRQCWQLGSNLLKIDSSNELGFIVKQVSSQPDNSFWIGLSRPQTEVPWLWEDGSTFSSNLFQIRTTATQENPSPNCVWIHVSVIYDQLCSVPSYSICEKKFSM
Assay: Fab K dis, average of 3
Give just the number in s⁻¹; leave the unit off.

Sample records with koff:
[[record]]
binder = "2M24A.32 hFab L3 (Fab, V domains shown, Fab; also called 2M24.L3) VH: QVQLVQSGAEVKKPGASVKVSCKSSGYTFTDYYIHWVRQAPGQGLEWMGWINPNSGDTNYAQKFQGRITMTRDTSISTAYLELSRLRSDDTAVFYCARNSGSYSFGYWGQGTLVTVSS VL: DIQMTQSPSSVSASVGDRVTITCRASQGISSWLAWYQQKPGKAPKLLIFAASSLQSGVPSRFSGSGSGTDFTLTISSLQPEDFATYYCQQAYSFPFTFGPGTKVDIE"
quantitative_readout = 0.00376

[[record]]
binder = "2M24A.30 hFab L1 (Fab, V domains shown, Fab; also called 2M24.L1) VH: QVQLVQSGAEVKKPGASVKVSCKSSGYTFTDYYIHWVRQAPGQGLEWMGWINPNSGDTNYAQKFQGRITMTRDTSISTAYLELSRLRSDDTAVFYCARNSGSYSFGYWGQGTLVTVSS VL: DIQMTQSPSSVSASVGDRVTITCRASQGISSWLAWYQQKPGKAPKLLIFGASSLQSGVPSRFSGSGSGTDFTLTISSLQPEDFATYYCQQAYSFPFTFGPGTKVDIE"
quantitative_readout = 0.00351

[[record]]
binder = "2M24A.33 hFab L4 (Fab, V domains shown, Fab; also called 2M24.L4) VH: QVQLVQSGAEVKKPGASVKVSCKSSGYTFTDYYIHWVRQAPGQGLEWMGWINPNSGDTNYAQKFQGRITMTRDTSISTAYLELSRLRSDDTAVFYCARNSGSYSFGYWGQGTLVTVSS VL: DIQMTQSPSSVSASVGDRVTITCRASQGISSWLAWYQQKPGKAPKLLIYAASSLQSGVPSRFSGSGSGTDFTLTISSLQPEDFATYYCQQAYSFPFTFGPGTKVDIE"
quantitative_readout = 0.00402


Okay, now this binder:
Endpoint output: koff of 2M24A.31 hFab L2 (Fab, V domains shown, Fab; also called 2M24.L2) VH: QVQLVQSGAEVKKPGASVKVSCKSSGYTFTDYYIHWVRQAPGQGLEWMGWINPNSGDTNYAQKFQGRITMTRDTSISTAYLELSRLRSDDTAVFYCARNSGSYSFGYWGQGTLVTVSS VL: DIQMTQSPSSVSASVGDRVTITCRASQGISSWLAWYQQKPGKAPKLLIYGASSLQSGVPSRFSGSGSGTDFTLTISSLQPEDFATYYCQQAYSFPFTFGPGTKVDIE . Value?
0.0037
